Hi there, I'd appreciate the recorded IC50 for every entry that follows.
test system: HeLa S3 cells; assay: HeLa S3 Cell Growth Inhibition Test; format: cell-based; details: Homo sapiens, HeLa S3, 72 h, HeLa S3; 72 hours incubation; Neutral Red; read-out: IC50, HeLa S3 cell growth inhibition
# number only, unit nM dropped from output

Q: State IC50 on HeLa S3 cells. Entry: CC(=O)OCc1oc(=O)oc1CSC(=O)C(C)(O)C12CC/C(C)=C/C(O)C(=O)/C=C/C=C\c3csc(n3)C(C)N(C(=O)C1)[S+]2[O-] (centres unmarked) [Compound 90]
Ans: 130

Q: State IC50 on HeLa S3 cells. Entry: CCC/C=C(\CSC(=O)C(C)(O)C12CC/C(C)=C/C(OC3(OC)CCOCC3)C(=O)/C=C/C=C\c3csc(n3)C(C)N(C(=O)C1)[S+]2[O-])C(=O)OC (centres unmarked) [Compound 119]
Ans: 870

Q: State IC50 on HeLa S3 cells. Entry: COC(=O)CCC(=O)OCSC(=O)C(C)(O)C12CCC(C)=CC(O)C(=O)C=CC=Cc3csc(n3)C(C)N(C(=O)C1)[S+]2[O-] (centres unmarked) [Compound 1]
Ans: 7

Q: State IC50 on HeLa S3 cells. Entry: CC1=CC(O)C(=O)C=CC=Cc2csc(n2)C(C)N2C(=O)CC(C(C)(O)C(=O)SCOC(=O)CC[C@H](NC(=O)OC(C)(C)C)C(=O)OC(C)(C)C)(CC1)[S+]2[O-] (some centres unmarked) [Compound 22]
Ans: 7.4

Q: State IC50 on HeLa S3 cells. Entry: CC(=O)Oc1cccc(C(=O)OCSC(=O)C(C)(O)C23CC/C(C)=C/C(OC4CCCCO4)C(=O)/C=C/C=C\c4csc(n4)C(C)N(C(=O)C2)[S+]3[O-])c1 (centres unmarked) [Compound 54]
Ans: 15
